The measurements presented in this section are drawn from paper PMC7192615.

# studyTarget: UP1 (UniProt P09651-2 1-196)
# Sequence (P09651 1-196): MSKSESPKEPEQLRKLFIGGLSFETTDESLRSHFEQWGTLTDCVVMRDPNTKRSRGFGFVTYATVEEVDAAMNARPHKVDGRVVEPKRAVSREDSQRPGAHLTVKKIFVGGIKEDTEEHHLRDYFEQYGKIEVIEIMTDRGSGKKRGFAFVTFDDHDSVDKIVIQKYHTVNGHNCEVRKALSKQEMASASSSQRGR
# methodSummary: ITC; 100 mM KCl; ITC/CD: 20 mM Tris pH 8.0, 100 mM KCl, 25 C; NMR: 10 mM potassium phosphate pH 6.5, 100 mM KCl, 298 K (10% D2O for HSQC)
# conditionLabel: protein: recombinant; tags: C-terminal 6xHis; parallel G4 dimer of 2 strands, two loops
outcomeMeasure: pKd
Friendly reminder that pKd comes from taking -log10 of the concentration in mol/L.

## Input Which pKd is listed for UUAGGGUUAGGG (structured_RNA) [TERRA-12] ?
## Output 5.69
